Taken from the supplement of paper PMC13380429.

System: A549-ACE2
Assay Text: drug-induced phospholipidosis relative to tamoxifen; higher = more phospholipidosis
Condition Details: 3.33333 µM; 48 h
Catalogue of drug-induced phospholipidosis values

{"Compound": "C=C1C(=O)[C@]23[C@H](O)[C@H]1CC[C@H]2[C@@]12CO[C@]3(O)[C@@H](O)[C@@H]1C(C)(C)CC[C@@H]2O [Oridonin (Isodonol)]", "drug-induced phospholipidosis (%)": -0.285}
{"Compound": "CN1Cc2ccccc2[C@@H]2c3cccc4[nH]cc(c34)C[C@H]21 [CY208-243]", "drug-induced phospholipidosis (%)": 17.4}
{"Compound": "COCC(=O)O[C@]1(CCN(C)CCCc2nc3ccccc3[nH]2)CCc2cc(F)ccc2[C@@H]1C(C)C [mibefradil]", "drug-induced phospholipidosis (%)": 63.5}
{"Compound": "CSc1ccc2c(c1)[C@H](N1CCN(C)CC1)Cc1ccccc1S2 (racemic) [metitepine]", "drug-induced phospholipidosis (%)": 47.9}

====

# key: entry, value: cell viability
Tested on: U2OS
Assay Text: cell viability relative to DMSO; higher = less toxic
Condition Details: 72 h; 1000 nM
Measured Metric: cell viability (%)

{"Compound": "CCCN[C@@H]1CCc2c(OC)cccc2[C@@H]1C [AJ76-(+)]", "Number": 95.9}
{"Compound": "CN(C)C/C=C/C(=O)Nc1ccc(C(=O)Nc2cccc(Nc3ncc(Cl)c(-c4c[nH]c5ccccc45)n3)c2)cc1 [THZ1]", "Number": 6.2}
{"Compound": "O=C(O)CCCc1ccccc1 [phenylbutyrate]", "Number": 103}
{"Compound": "CCCN(CCC)C(=O)C1=Cc2ccc(-c3ccc(C(=O)N4CCCC4)cc3)cc2N=C(N)C1 [motolimod]", "Number": 98.1}
{"Compound": "NCCCC(O)(P(=O)(O)O)P(=O)(O)O [alendronate]", "Number": 104}
{"Compound": "O=C(OC[C@H]1O[C@@H](OC(=O)c2cc(O)c(O)c(OC(=O)c3cc(O)c(O)c(O)c3)c2)[C@H](OC(=O)c2cc(O)c(O)c(OC(=O)c3cc(O)c(O)c(O)c3)c2)[C@@H](OC(=O)c2cc(O)c(O)c(OC(=O)c3cc(O)c(O)c(O)c3)c2)[C@@H]1OC(=O)c1cc(O)c(O)c(OC(=O)c2cc(O)c(O)c(O)c2)c1)c1cc(O)c(O)c(OC(=O)c2cc(O)c(O)c(O)c2)c1 [tannic-acid]", "Number": 97.8}

====

Test system: U2OS
Assay Text: relative viability EC50 (midpoint between 100% and the lowest measured viability); higher = less toxic
Condition Details: 72 h
Measured Metric: relative viability EC50

{"Compound": "S=C(NCCc1ccccn1)Nc1ccc(Br)cn1 [trovirdine]", "Result": "> 10 µM"}
{"Compound": "CCCN[C@@H]1CCc2c(OC)cccc2[C@@H]1C [AJ76-(+)]", "Result": "> 10 µM"}
{"Compound": "O=C(NC(Cc1cc(=O)[nH]c2ccccc12)C(=O)O)c1ccc(Cl)cc1 (stereo not drawn) [rebamipide]", "Result": "> 10 µM"}

====

Tested on: Vero E6
Assay Text: cell viability relative to DMSO; higher = less toxic
Condition Details: 72 h; 10 nM
Listed next: entries and their corresponding cell viability.

{"Compound": "COc1cc2c(cc1OC)[C@@H](Cc1cc(OC)c(OC)c(OC)c1)[N+](C)(CCCOC(=O)CC/C=C/CCC(=O)OCCC[N+]1(C)CCc3cc(OC)c(OC)cc3[C@H]1Cc1cc(OC)c(OC)c(OC)c1)CC2 (stereo not given in full) [mivacurium]", "Unit Spec": "%", "cell viability": 112}
{"Compound": "Cc1cc(OI)c(C(C)C)cc1-c1cc(C(C)C)c(OI)cc1C [thymol-iodide]", "Unit Spec": "%", "cell viability": 102}
{"Compound": "C[C@@H]1CN(CCCn2c3ccccc3c3ccccc32)C[C@H](C)N1 [rimcazole]", "Unit Spec": "%", "cell viability": 97.9}
{"Compound": "CC(C)(C)c1ccc(NC(=O)N2CCN(c3ncccc3Cl)CC2)cc1 [BCTC]", "Unit Spec": "%", "cell viability": 101}
{"Compound": "CC(NC(=O)c1ccccc1/N=C/c1c(O)ccc2ccccc12)c1ccccc1 (stereo not given) [sirtinol]", "Unit Spec": "%", "cell viability": 91.2}
{"Compound": "CC[C@H](C)[C@H](N)C(=O)O [isoleucine]", "Unit Spec": "%", "cell viability": 97.3}
{"Compound": "OC[C@@H](O)[C@@H](O)[C@@H](O)CO [ribitol]", "Unit Spec": "%", "cell viability": 100}
{"Compound": "N#Cc1cc(-c2n[nH]c(-c3ccncc3)n2)ccn1 [topiroxostat]", "Unit Spec": "%", "cell viability": 103}
{"Compound": "CS(=O)(=O)c1ccc(-c2cn3ccccc3n2)cc1 [zolimidine]", "Unit Spec": "%", "cell viability": 107}
{"Compound": "N[C@]1(C(=O)O)CC[C@@H](C(=O)O)C1 [cis-ACPD]", "Unit Spec": "%", "cell viability": 99.1}
{"Compound": "CCOc1ccc(S(=O)(=O)O)c2cccnc12 [actinoquinol]", "Unit Spec": "%", "cell viability": 90.2}
{"Compound": "CC(CCc1ccc(O)cc1)NCCc1ccc(O)c(O)c1 (stereo not given) [dobutamine]", "Unit Spec": "%", "cell viability": 103}
{"Compound": "N#CC(=C(/N)Sc1ccccc1N)/C(C#N)=C(/N)Sc1ccccc1N [U-0126]", "Unit Spec": "%", "cell viability": 99.9}
{"Compound": "CC(CNC1CCCCC1)OC(=O)c1ccccc1 (stereo not given) [hexylcaine]", "Unit Spec": "%", "cell viability": 102}
{"Compound": "Oc1ccc(/C=C/c2cc(O)cc(O)c2)cc1 [resveratrol]", "Unit Spec": "%", "cell viability": 97.3}
{"Compound": "COc1cc2c(cc1OC)-c1cc3nc4ccccc4nc3n1C(C)(C)C2", "Unit Spec": "%", "cell viability": 102}
{"Compound": "COCC1=C(C(=O)O)N2C(=O)[C@@H](NC(=O)/C(=N\\OC)c3csc(N)n3)[C@H]2SC1 [cefpodoxime]", "Unit Spec": "%", "cell viability": 98.1}
{"Compound": "O=C(O)c1ccccc1Nc1cccc(OCc2ccc3ccccc3n2)c1 [SR-2640]", "Unit Spec": "%", "cell viability": 98.9}
{"Compound": "CCOC(=O)c1ccc(C#Cc2ccc3c(c2)C(C)(C)CCS3)nc1 [tazarotene]", "Unit Spec": "%", "cell viability": 97.7}
{"Compound": "COc1cc2c(cc1OC)[C@H](C)NCC2 [Isoquinoline,-6,7-dimethoxy-1-methyl-1,2,3,4-tetrahydro,]", "Unit Spec": "%", "cell viability": 96.5}
